test.system: GBA1 (Homo sapiens, UniProt P04062, R534H)
Construct: purchased Sanofi (Cerezyme)
Sequence (P04062 40-536 R534H): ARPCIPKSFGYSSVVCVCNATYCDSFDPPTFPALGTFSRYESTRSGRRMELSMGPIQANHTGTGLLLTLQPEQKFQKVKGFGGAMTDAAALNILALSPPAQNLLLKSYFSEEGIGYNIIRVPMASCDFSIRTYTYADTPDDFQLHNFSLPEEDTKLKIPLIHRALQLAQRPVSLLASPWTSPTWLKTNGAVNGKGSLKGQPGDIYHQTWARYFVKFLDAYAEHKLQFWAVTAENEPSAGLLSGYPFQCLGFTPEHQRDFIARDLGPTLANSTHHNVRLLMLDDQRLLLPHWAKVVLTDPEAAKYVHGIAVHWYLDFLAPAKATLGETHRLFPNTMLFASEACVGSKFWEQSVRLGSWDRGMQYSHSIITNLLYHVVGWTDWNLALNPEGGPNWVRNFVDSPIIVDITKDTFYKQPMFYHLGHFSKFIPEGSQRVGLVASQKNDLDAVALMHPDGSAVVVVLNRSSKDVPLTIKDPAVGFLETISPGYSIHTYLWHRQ
method.notes: GBA1 activity, recombinant human enzyme (Cerezyme), 4-MU-β-glucoside substrate;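 further: enzyme activity read out as fluorescence of the 4-MU released from the substrate, measured on a fluorimeter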
Type: biochemical
measured.parameter: log10(IC50) (log10 of the value in nM)
Remember, log10 of IC50, in nM.

Any idea what its log10(IC50) is? The molecule is OC[C@@H]1[C@@H](O)[C@H](O)[C@@H](O)CN1CC(F)(F)CCCOCc1ccc(-c2ccccc2)cc1
2.70

Any idea what its log10(IC50) is? The molecule is OC[C@H]1[C@@H](O)[C@H](O)[C@@H](O)CN1CCCC(F)(F)COCc1ccc(-c2ccccc2)cc1
4.10

Any idea what its log10(IC50) is? The molecule is N#Cc1ccc(-c2ccc(COCCCCCN3C[C@H](O)[C@@H](O)[C@H](O)[C@H]3CO)cc2)cc1
2.54

Any idea what its log10(IC50) is? The molecule is OC[C@@H]1[C@@H](O)[C@H](O)[C@@H](O)CN1CCCCCOCc1ccc(-c2cccc(F)c2)cc1
2.40

Any idea what its log10(IC50) is? The molecule is OC[C@@H]1[C@@H](O)[C@H](O)[C@@H](O)CN1CCCCCOCc1cccc(-c2ccccc2)c1
2.48

Any idea what its log10(IC50) is? The molecule is COc1cccc(-c2ccc(COCCCCCN3C[C@H](O)[C@@H](O)[C@H](O)[C@H]3CO)cc2)c1
3.40

Any idea what its log10(IC50) is? The molecule is Cc1ccc(-c2ccc(COCCCCCN3C[C@H](O)[C@@H](O)[C@H](O)[C@H]3CO)cc2)cc1
2.40

* * *

test.system: glucosylceramide synthase (GCS) (Mus musculus, UniProt O88693)
Construct: IC50 values for GCS activity were measured using living cells; endogenous in cells
Sequence (O88693 whole entry): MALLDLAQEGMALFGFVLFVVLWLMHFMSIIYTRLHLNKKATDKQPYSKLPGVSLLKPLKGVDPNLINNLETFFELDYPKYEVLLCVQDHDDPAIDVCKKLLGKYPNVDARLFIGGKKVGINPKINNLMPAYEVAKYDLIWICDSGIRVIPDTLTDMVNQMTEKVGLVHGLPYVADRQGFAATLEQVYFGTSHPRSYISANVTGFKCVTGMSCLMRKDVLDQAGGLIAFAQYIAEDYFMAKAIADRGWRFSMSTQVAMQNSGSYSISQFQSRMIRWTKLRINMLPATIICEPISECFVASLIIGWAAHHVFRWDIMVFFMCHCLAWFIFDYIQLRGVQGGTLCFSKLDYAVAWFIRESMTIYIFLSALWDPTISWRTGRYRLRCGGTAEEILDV
method.notes: GCS activity in living macrophage  cells (C6-NBD lipid, TLC readout)
Assay type: cell-based
condition.description: read-out: GCS [nM] (IC50)
Exercise: state measured IC50 for each of the compounds provided.
State just the number; it will be interpreted in nM.

Any idea what its IC50 is? The compound is OC[C@@H]1[C@@H](O)[C@H](O)[C@@H](O)CN1CCCCCOCc1ccc(-c2cccc(F)c2)cc1
25

Any idea what its IC50 is? The compound is COc1ccc(-c2ccc(COCCCCCN3C[C@H](O)[C@@H](O)[C@H](O)[C@H]3CO)cc2)cc1
25

Any idea what its IC50 is? The compound is OC[C@@H]1[C@@H](O)[C@H](O)[C@@H](O)CN1CCCCCOCc1ccc(-c2ccc(Cl)cc2)cc1
25

Any idea what its IC50 is? The compound is COc1cccc(-c2ccc(COCCCCCN3C[C@H](O)[C@@H](O)[C@H](O)[C@H]3CO)cc2)c1
150

Any idea what its IC50 is? The compound is OC[C@H]1[C@@H](O)[C@H](O)[C@@H](O)CN1CCCCCOCc1cccc(-c2ccccc2)c1
75

Any idea what its IC50 is? The compound is OC[C@@H]1[C@@H](O)[C@H](O)[C@@H](O)CN1CCCCCOCc1ccc(-c2ccc3c(c2)OCCCO3)cc1
25

Any idea what its IC50 is? The compound is OC[C@@H]1[C@@H](O)[C@H](O)[C@@H](O)CN1CCCCCOCc1ccc(-c2cc(C(F)(F)F)cc(C(F)(F)F)c2)cc1
20

Any idea what its IC50 is? The compound is OC[C@H]1[C@@H](O)[C@H](O)[C@@H](O)CN1CCCCCOCc1ccc(-c2ccccc2)c(F)c1
2.5

Any idea what its IC50 is? The compound is N#Cc1ccccc1-c1ccc(COCCCCCN2C[C@H](O)[C@@H](O)[C@H](O)[C@H]2CO)cc1
150

Any idea what its IC50 is? The compound is OC[C@@H]1[C@@H](O)[C@H](O)[C@@H](O)CN1CCCCCOCc1ccc(-c2ccc(F)nc2)cc1
750

Any idea what its IC50 is? The compound is COc1ccccc1-c1ccc(COCCCCCN2C[C@H](O)[C@@H](O)[C@H](O)[C@H]2CO)cc1
50

Any idea what its IC50 is? The compound is OC[C@@H]1[C@@H](O)[C@H](O)[C@@H](O)CN1CCCCCOCc1ccc(-c2ccc(C(F)(F)F)cc2)cc1
20

Any idea what its IC50 is? The compound is OC[C@@H]1[C@@H](O)[C@H](O)[C@@H](O)CN1CCCCCOCc1ccc(-c2ccccc2)cc1F
25

Any idea what its IC50 is? The compound is OC[C@H]1[C@@H](O)[C@H](O)[C@@H](O)CN1CCCCCOCc1ccc(-c2ccccc2)c(C(F)(F)F)c1
3

* * *

test.system: GBA2 (Homo sapiens)
Construct: measured using a membrane fraction obtained from Gaucher spleen; from tissue; host or cells: membrane fraction of Gaucher spleen, pre-treated with conduritol B-epoxide
Sequence (Q9HCG7 whole entry): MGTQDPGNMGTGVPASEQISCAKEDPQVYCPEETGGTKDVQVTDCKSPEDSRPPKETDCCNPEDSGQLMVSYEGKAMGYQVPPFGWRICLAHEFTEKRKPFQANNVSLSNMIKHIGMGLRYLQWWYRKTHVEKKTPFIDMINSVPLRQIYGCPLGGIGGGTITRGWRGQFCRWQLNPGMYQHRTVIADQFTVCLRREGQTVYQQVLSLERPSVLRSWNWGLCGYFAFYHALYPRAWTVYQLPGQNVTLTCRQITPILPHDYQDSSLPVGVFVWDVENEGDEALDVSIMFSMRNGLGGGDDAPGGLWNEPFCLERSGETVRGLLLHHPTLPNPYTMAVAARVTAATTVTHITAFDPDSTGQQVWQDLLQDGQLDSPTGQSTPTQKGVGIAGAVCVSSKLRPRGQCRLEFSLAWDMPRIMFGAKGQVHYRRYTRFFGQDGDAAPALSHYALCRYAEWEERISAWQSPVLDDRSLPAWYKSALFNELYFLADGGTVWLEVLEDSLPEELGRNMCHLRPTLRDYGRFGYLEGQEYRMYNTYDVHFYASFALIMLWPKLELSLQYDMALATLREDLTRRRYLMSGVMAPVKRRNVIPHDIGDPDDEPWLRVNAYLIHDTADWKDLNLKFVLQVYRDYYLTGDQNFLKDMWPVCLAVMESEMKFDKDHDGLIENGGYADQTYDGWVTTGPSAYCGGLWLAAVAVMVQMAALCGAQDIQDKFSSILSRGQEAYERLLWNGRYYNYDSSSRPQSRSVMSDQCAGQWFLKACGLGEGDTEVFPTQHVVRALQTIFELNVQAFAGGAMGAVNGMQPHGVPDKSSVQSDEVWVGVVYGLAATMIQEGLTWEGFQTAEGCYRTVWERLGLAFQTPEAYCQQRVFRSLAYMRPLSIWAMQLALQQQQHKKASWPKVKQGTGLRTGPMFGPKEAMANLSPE
method.notes: GBA2 activity, membrane fraction from Gaucher spleen, 4-MU-β-glucoside substrate;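 further: Read-out is fluorimetric quantification of released 4-MU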
Assay type: biochemical
condition.description: D-gluco configuration series, Example 3
Exercise: state measured IC50 for each of the compounds provided.

Any idea what its IC50 is? The compound is OC[C@@H]1[C@@H](O)[C@H](O)[C@@H](O)CN1CCCCCOCc1ccc(-c2ccccc2F)cc1 [Compound 25]
2 nM

Any idea what its IC50 is? The compound is OC[C@@H]1[C@@H](O)[C@H](O)[C@@H](O)CN1CCCCCOCc1ccc(-c2cc(C(F)(F)F)cc(C(F)(F)F)c2)cc1 [Compound 22]
15 nM

Any idea what its IC50 is? The compound is N#Cc1ccccc1-c1ccc(COCCCCCN2C[C@H](O)[C@@H](O)[C@H](O)[C@H]2CO)cc1 [Compound 28]
5 nM

Any idea what its IC50 is? The compound is OC[C@@H]1[C@@H](O)[C@H](O)[C@@H](O)CN1CCCCCOCc1ccccc1-c1ccccc1 [Compound 14]
3 nM

Any idea what its IC50 is? The compound is OC[C@@H]1[C@@H](O)[C@H](O)[C@@H](O)CN1CCCCCOCc1ccc(-c2ccccc2)cn1 [Compound 12]
3 nM

Any idea what its IC50 is? The compound is Cc1ccc(-c2ccc(COCCCCCN3C[C@H](O)[C@@H](O)[C@H](O)[C@H]3CO)cc2)cc1 [Compound 36]
3 nM

Any idea what its IC50 is? The compound is N#Cc1ccc(-c2ccc(COCCCCCN3C[C@H](O)[C@@H](O)[C@H](O)[C@H]3CO)cc2)cc1 [Compound 30]
3 nM

Any idea what its IC50 is? The compound is COc1ccc(-c2ccc(COCCCCCN3C[C@H](O)[C@@H](O)[C@H](O)[C@H]3CO)cc2)cc1 [Compound 33]
10 nM

Any idea what its IC50 is? The compound is OC[C@@H]1[C@@H](O)[C@H](O)[C@@H](O)CN1CCCCCOCc1cccc(-c2ccccc2)c1 [Compound 13]
2 nM

Any idea what its IC50 is? The compound is OC[C@@H]1[C@@H](O)[C@H](O)[C@@H](O)CN1CCCCCOCc1ccc(-c2ccccc2)cc1C(F)(F)F [Compound 8]
0.12 nM

Any idea what its IC50 is? The compound is OC[C@@H]1[C@@H](O)[C@H](O)[C@@H](O)CN1CCCCCOCc1ccc(-c2ccc(C(F)(F)F)cc2)cc1 [Compound 23]
10 nM

Any idea what its IC50 is? The compound is OC[C@@H]1[C@@H](O)[C@H](O)[C@@H](O)CN1CCCCCOCc1ccc(-c2ccnc(F)c2)cc1 [Compound 16]
4 nM

Any idea what its IC50 is? The compound is OC[C@@H]1[C@@H](O)[C@H](O)[C@@H](O)CN1CCCCCOCc1ccc(-c2ccc(Cl)cc2)cc1 [Compound 24]
2 nM

Any idea what its IC50 is? The compound is Cc1cccc(-c2ccc(COCCCCCN3C[C@H](O)[C@@H](O)[C@H](O)[C@H]3CO)cc2)c1 [Compound 35]
2 nM
